meta.source: ChEMBL document CHEMBL4814079

# System: Lactobacillus gasseri
# experimental protocol: Antibacterial activity against gut Lactobacillus gasseri HM-664 assessed as reduction in bacterial growth measured after 48 hrs by CLSI based broth microdilution method
# Assay type: organism-based
# test context: in vitro
recorded endpoint: MIC

Fill in: MIC of O=C(Nc1ncco1)c1cc(Oc2cccc(OC(F)(F)F)c2)ccn1 is ___ > 16 mg/L

Fill in: MIC of CCc1c(Cl)c(O)c(Cl)c(O)c1C(=O)O[C@H]1[C@H](O)[C@H](OC)[C@H](OC/C2=C\C=C\C[C@H](O)/C(C)=C/[C@H](CC)[C@@H](O[C@@H]3OC(C)(C)[C@@H](OC(=O)C(C)C)[C@H](O)[C@@H]3O)/C(C)=C/C(C)=C/C[C@@H]([C@@H](C)O)OC2=O)O[C@@H]1C [FIDAXOMICIN] is ___ 2 mg/L

Fill in: MIC of O=C([O-])c1ccc2oc(NC(=O)c3cc(Oc4cccc(OC(F)(F)F)c4)ccn3)nc2c1.[Na+] is ___ > 16 mg/L

Fill in: MIC of O=C(Nc1ncco1)c1cc(-c2ccc(Cl)c(Cl)c2)ccn1 is ___ > 16 mg/L

Fill in: MIC of O=C(Nc1ncco1)c1ccnc(-c2ccc(Cl)c(Cl)c2)c1 is ___ > 16 mg/L

Fill in: MIC of CN[C@H](CC(C)C)C(=O)N[C@H]1C(=O)N[C@@H](CC(N)=O)C(=O)N[C@H]2C(=O)N[C@H]3C(=O)N[C@H](C(=O)N[C@H](C(=O)O)c4cc(O)cc(O)c4-c4cc3ccc4O)[C@H](O)c3ccc(c(Cl)c3)Oc3cc2cc(c3O[C@@H]2O[C@H](CO)[C@@H](O)[C@H](O)[C@H]2O[C@H]2C[C@](C)(N)[C@H](O)[C@H](C)O2)Oc2ccc(cc2Cl)[C@H]1O [VANCOMYCIN] is ___ 1 mg/L

Fill in: MIC of Cc1ncc([N+](=O)[O-])n1CCO [METRONIDAZOLE] is ___ > 32 mg/L

---

# Tested on: HeLa
# experimental protocol: Cytotoxicity against human HeLa cells assessed as reduction in cell viability incubated for 16 hrs by XTT assay
# Type: cell-based
recorded endpoint: IC50 (µg/mL)
Record the value in µg/mL, omitting the unit from your answer.

Fill in: IC50 of O=C(O)c1ccc2oc(NC(=O)c3cc(-c4ccc(OC(F)(F)F)cc4)ccn3)nc2c1 is ___ 79.9

Fill in: IC50 of O=C(Nc1ncco1)c1cc(-c2cc(F)cc(F)c2)ccn1 is ___ 40.1

Fill in: IC50 of O=C(Nc1ncco1)c1ccnc(Oc2ccc(Cl)c(Cl)c2)c1 is ___ 37

Fill in: IC50 of O=C(O)c1ccc2oc(NC(=O)c3cc(-c4cccc(OC(F)(F)F)c4)ccn3)nc2c1 is ___ 124

Fill in: IC50 of O=C(Nc1ncco1)c1cc(-c2ccc(Cl)c(Cl)c2)ccn1 is ___ 95.2

---

Hi there, I'd appreciate the recorded MIC for every entry that follows.
# Tested on: Corynebacterium
# experimental protocol: Antibacterial activity against gut Corynebacterium HM-784 assessed as reduction in bacterial growth measured after 48 hrs by CLSI based broth microdilution method
# Type: organism-based

Could you share what MIC was measured for Cc1ncc([N+](=O)[O-])n1CCO [METRONIDAZOLE] , tested on Corynebacterium? > 32 µg/mL

Could you share what MIC was measured for CCc1c(Cl)c(O)c(Cl)c(O)c1C(=O)O[C@H]1[C@H](O)[C@H](OC)[C@H](OC/C2=C\C=C\C[C@H](O)/C(C)=C/[C@H](CC)[C@@H](O[C@@H]3OC(C)(C)[C@@H](OC(=O)C(C)C)[C@H](O)[C@@H]3O)/C(C)=C/C(C)=C/C[C@@H]([C@@H](C)O)OC2=O)O[C@@H]1C [FIDAXOMICIN] , tested on Corynebacterium? < 0.0625 µg/mL

Could you share what MIC was measured for O=C(Nc1ncco1)c1cc(Oc2cccc(OC(F)(F)F)c2)ccn1 , tested on Corynebacterium? > 16 µg/mL
